Origin of values: PubChem BioAssay (EPA / NIEHS)

Biological target: Cellular tumor antigen p53 (Homo sapiens) (UniProt P04637)
Sequence (P04637 whole entry, looked up): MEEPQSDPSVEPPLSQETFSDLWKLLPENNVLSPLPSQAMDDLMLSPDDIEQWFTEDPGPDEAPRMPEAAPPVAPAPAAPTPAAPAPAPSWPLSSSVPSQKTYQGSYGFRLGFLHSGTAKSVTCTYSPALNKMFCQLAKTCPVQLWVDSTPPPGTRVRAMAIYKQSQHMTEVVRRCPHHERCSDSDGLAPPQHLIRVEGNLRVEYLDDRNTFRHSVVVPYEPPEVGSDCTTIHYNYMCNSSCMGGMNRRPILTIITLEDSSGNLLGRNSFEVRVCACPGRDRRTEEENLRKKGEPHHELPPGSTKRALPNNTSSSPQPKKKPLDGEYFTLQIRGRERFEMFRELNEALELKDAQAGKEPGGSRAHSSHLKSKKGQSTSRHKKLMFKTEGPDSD
Assay: TOX21_p53_BLA_p2_ratio: Tox21 HCT-116 p53 Agonism Beta-lactamase Assay, Ratio, Phase 2 (AID 2283592)
Records with an inconclusive call do not appear. Calls of active or inactive are those of the source. Rule for the calls: active = hit-call score of the fitted dose curve at least 0.9, where 1 is the maximum; inconclusive = response in the unintended direction; inactive = score below 0.9.
quantity_kind: AC50

Answered examples (5):
O=S(O)CO | inactive
Nc1cc(S(=O)(=O)O)cc2cc(S(=O)(=O)O)cc(O)c12 | inactive
CCN(CC)CCNc1ccc(CO)c2sc3ccccc3c(=O)c12 | 16.2 µM (active)
O[C@@H](c1cc(C(F)(F)F)nc2c(C(F)(F)F)cccc12)[C@H]1CCCCN1 | 28.9 µM (active)
OCCN1CCN(CCO)CC1 | inactive

[ask] Enter recorded AC50 with Cellular tumor antigen p53 (Homo sapiens) (UniProt P04637) for "CCCCOC(=O)CO" here.
[reply] inactive

[ask] Please indicate recorded AC50 of "O=[N+]([O-])c1cccc(I)c1" measured with Cellular tumor antigen p53 (Homo sapiens) (UniProt P04637).
[reply] inactive

* * *

Target: Cellular tumor antigen p53 (Homo sapiens) (UniProt P04637)
Experiment: TOX21_p53_BLA_p4_ratio: Tox21 HCT-116 p53 Agonism Beta-lactamase Assay, Ratio, Phase 4 (AID 2283601)
Records with an inconclusive call do not appear. Activity calls are given as the source filed them. How the source made its calls: active means hit-call score of the fitted dose curve at least 0.9, where 1 is the maximum; inconclusive means response in the unintended direction; inactive means score below 0.9.
Allowed answers: active, inactive

As a guide, the following entries are already answered.
O=C(CCS)OCC(COC(=O)CCS)(COC(=O)CCS)COC(=O)CCS | inactive
Cc1ccccc1N1CCN(CCc2nnc3n2CCCC3)CC1 | inactive

[ask] Status in this test for "O=C(O)c1ccc2cc(O)ccc2c1" ?
[reply] inactive

[ask] Identify the outcome logged in this assay for the compound shown: "CCCCCCCCCCCCCCCC(=O)OC(C)C"
[reply] inactive

[ask] Call for entry "COc1cc(/C=C/c2ccccc2)oc(=O)c1" :
[reply] inactive

[ask] For "CC(O)(c1ccc(Cl)cc1)c1ccc(Cl)cc1" , which call appears in the assay record?
[reply] inactive

[ask] How did this test come out for "COc1cc2c(Nc3ccc(Br)cc3F)ncnc2cc1OCC1CCN(C)CC1" ?
[reply] inactive

[ask] Lab log entry: "CC(=C(CCOC(=O)C(C)C)SSC(CCOC(=O)C(C)C)=C(C)N(C=O)Cc1cnc(C)nc1N)N(C=O)Cc1cnc(C)nc1N" — outcome as called in the assay?
[reply] inactive

[ask] Fill in: this test's call for CN(C)CCC(c1ccccc1)c1ccccn1 (stereo not drawn) is ___
[reply] inactive

[ask] What call does the record list for "Cc1cc(-c2ccc(N=Nc3cc(S(=O)(=O)O)c4ccccc4c3N)c(C)c2)ccc1N=Nc1cc(S(=O)(=O)O)c2ccccc2c1N" ?
[reply] inactive

[ask] Please indicate how the test categorized "Cn1c(=O)c2[nH]c(Br)nc2n(C)c1=O" .
[reply] inactive

[ask] Check the results log: what was the call for "Nc1ccccc1O" ?
[reply] active

[ask] I would be grateful if you could indicate the recorded call for "Cn1c(O)c(N=NC(N)=S)c2ccccc21" .
[reply] inactive

* * *

Molecular target: Estrogen receptor beta (Homo sapiens) (UniProt Q92731)
Sequence (Q92731 whole entry, looked up, the tested form may be a part): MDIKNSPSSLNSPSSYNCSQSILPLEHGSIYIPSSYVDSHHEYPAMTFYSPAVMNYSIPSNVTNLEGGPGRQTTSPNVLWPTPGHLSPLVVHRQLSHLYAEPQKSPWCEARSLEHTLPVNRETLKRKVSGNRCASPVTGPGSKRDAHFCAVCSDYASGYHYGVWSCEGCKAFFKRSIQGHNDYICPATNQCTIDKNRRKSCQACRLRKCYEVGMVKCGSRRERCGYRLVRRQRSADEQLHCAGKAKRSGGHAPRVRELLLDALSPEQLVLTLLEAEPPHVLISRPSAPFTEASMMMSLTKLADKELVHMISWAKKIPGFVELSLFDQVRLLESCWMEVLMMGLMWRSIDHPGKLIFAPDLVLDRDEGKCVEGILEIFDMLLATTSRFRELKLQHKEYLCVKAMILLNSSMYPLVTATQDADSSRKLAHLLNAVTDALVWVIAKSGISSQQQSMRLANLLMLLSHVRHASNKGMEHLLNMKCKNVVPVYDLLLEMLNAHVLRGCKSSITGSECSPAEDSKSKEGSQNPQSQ
Test: OT_ER_ERbERb_1440: Odyssey Thera (OT) 24-hour HEK293T Protein-Complementation Assay for Estrogen Receptor-beta/-beta Homodimer (AID 2283380);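 note: fluorescence gain from ER beta LBD homodimer complementation read by laser scanning cytometry; scored as signal increase over DMSO baseline for both agonists and antagonists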
The source made the active and inactive calls. The calls were made as follows: active = hit-call score of the fitted dose curve at least 0.9, where 1 is the maximum; inconclusive = response in the unintended direction; inactive = score below 0.9.
// one of active, inactive, no free text

C[Si](C)(C)O[Si](C)(C)O[Si](C)(C)C | inactive
Cc1cccnc1 | inactive
CCCCCC[C@@H](O)C/C=C\CCCCCCCC(=O)O | inactive

Please find the next compound below.
[ask] Hi, do you know how "Cc1cc(O)cc(C)c1Cl" came out in this test?
[reply] active

* * *

Target: Myc proto-oncogene protein (Homo sapiens) (UniProt P01106)
Sequence (P01106 whole entry, looked up): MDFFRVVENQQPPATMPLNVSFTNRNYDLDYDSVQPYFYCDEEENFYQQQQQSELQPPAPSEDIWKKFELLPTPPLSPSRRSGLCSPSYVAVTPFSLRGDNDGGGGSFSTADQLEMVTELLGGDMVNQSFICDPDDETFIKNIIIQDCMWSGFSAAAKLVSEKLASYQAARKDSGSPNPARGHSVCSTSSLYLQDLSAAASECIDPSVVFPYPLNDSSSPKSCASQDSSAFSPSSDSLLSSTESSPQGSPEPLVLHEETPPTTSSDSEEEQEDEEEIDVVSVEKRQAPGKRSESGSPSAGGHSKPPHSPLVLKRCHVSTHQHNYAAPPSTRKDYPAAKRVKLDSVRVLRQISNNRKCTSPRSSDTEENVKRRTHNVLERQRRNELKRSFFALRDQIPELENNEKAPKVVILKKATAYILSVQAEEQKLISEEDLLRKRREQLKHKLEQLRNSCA
Assay: ATG_Myc_CIS: Attagene CIS-FACTORIAL HepG2 Assay for human Myelocytomatosis (Myc) Proto-Oncogene Transcription Factor (AID 2282990)
Details: HepG2, Attagene cis-reporter transcription factor activity; actives raise or lower the signal
Active and inactive are the calls of the source. Rule for the calls: active = hit-call score of the fitted dose curve at least 0.9, where 1 is the maximum; inactive = score below 0.9.
Form entry, call: pick from active, inactive

Solved entries (count: 5):
CCCCOC(=O)COc1ccc(Cl)cc1Cl | inactive
O=C(O)/C=C\C(=O)O | inactive
c1cc[c]([Bi]([c]2ccccc2)[c]2ccccc2)cc1 | inactive
COC(=O)CCSCCC(=O)OC | inactive
C=C(C)C(=O)OCCCCCC | inactive

[ask] // return assay outcome for "Clc1ccc(Sc2cc(Cl)c(Cl)cc2Cl)cc1"
[reply] inactive

[ask] Recorded test outcome, item "Cc1ccccc1S(=O)(=O)O"
[reply] inactive

[ask] Per the assay record, what outcome was assigned to "Cc1cc(-n2nc3ccc(Cl)cc3n2)c(O)c(C(C)(C)C)c1" ?
[reply] inactive

[ask] Hey, what did the test say about "Clc1ccccn1" ?
[reply] inactive

[ask] Hello, I am checking results. What call was entered for "CCCC(=O)OC" ?
[reply] inactive

[ask] For "C[Si](C)(C)O[Si](C)(C)O[Si](C)(C)C" , what call appears in the results of this test?
[reply] inactive

* * *

Assay: ATG_TGFb_CIS: Attagene CIS-FACTORIAL HepG2 Assay for human Transforming Growth Factor (TGF) (AID 2282967)
Conditions: HepG2 Attagene CIS TGFb reporter, mRNA transcription; actives raise or lower the signal
The source made the active and inactive calls. The calls were made as follows: active = hit-call score of the fitted dose curve at least 0.9, where 1 is the maximum; inactive = score below 0.9.
Parameter call: string, one of active, inactive

CC/C=C\CC1=C(C)CCC1=O | inactive
O=C(O)c1ccccc1C(=O)O | inactive
c1cc[c]([Bi]([c]2ccccc2)[c]2ccccc2)cc1 | active
O=C1NC(=O)[C@@H]2CC=CC[C@H]12 | inactive
CCOc1ccc2c(c1)C(C)CC(C)(C)N2 (stereo not drawn) | inactive
O=C(O)Cc1c[nH]c2ccccc12 | inactive

[ask] Per the assay record, what outcome was assigned to "CC[N+](CC)(CC(=O)Nc1c(C)cccc1C)Cc1ccccc1" ?
[reply] inactive

[ask] Test call for this compound, please: "NC(=O)c1ccc([N+](=O)[O-])cc1Cl"
[reply] inactive

[ask] // param item: "NC(=O)c1ccc(N)cc1" ; yields the recorded call
[reply] inactive

[ask] Please state the recorded outcome for this compound: "CCCOCCC"
[reply] inactive

[ask] Recorded test call requested for C=CC(C)(CCC=C(C)C)OC(=O)c1ccccc1 (stereo not drawn)
[reply] inactive

[ask] # fetch the recorded call for CCC(C)(CCC(C)C)C(=O)O (stereo not drawn) here
[reply] inactive

[ask] Test call, this compound: "CCCN[C@H]1CCc2nc(N)sc2C1"
[reply] inactive

* * *

Target: Cellular tumor antigen p53 (Homo sapiens)
Test: TOX21_p53_BLA_p3_ratio: Tox21 HCT-116 p53 Agonism Beta-lactamase Assay, Ratio, Phase 3 (AID 2283596)
Results filed as inconclusive are left out. Activity calls are given as the source filed them. Rule for the calls: active = hit-call score of the fitted dose curve at least 0.9, where 1 is the maximum; inconclusive = response in the unintended direction; inactive = score below 0.9.
Field 'call' accepts active, inactive

OC[C@@H](O)C(O)[C@H](O)CO | inactive
Nc1c2c(nc3ccccc13)CCCC2 | inactive
O=C1NC(=O)C2CC=CCC12 (centres undefined) | inactive

[ask] Any idea what this test logged for "OCCN1CCN(CCO)CC1" ?
[reply] inactive

[ask] What did this assay record as the result for "O=C(c1ccccc1)c1cccc(O)c1" ?
[reply] inactive

[ask] Field: outcome | Entry: "Cc1cc(N)c2ccccc2[n+]1CCCCCCCCCC[n+]1c(C)cc(N)c2ccccc21"
[reply] inactive

[ask] Hello, I am checking results. What call was entered for "CNc1ccccc1" ?
[reply] inactive

[ask] Assay outcome for Nc1ccn(C2CO[C@H](CO)O2)c(=O)n1 (some centres undefined) : what was it?
[reply] active

[ask] Dear colleague, could you share the recorded outcome for "O=S(O)CNc1ccc(S(=O)(=O)c2ccc(NCS(=O)O)cc2)cc1" when you have a moment?
[reply] inactive

* * *

Target: Cellular tumor antigen p53 (Homo sapiens) (UniProt P04637)
Assay: TOX21_p53_BLA_p2_ratio: Tox21 HCT-116 p53 Agonism Beta-lactamase Assay, Ratio, Phase 2 (AID 2283592)
Records with an inconclusive call do not appear. Active and inactive are the calls of the source. Rule for the calls: active = hit-call score of the fitted dose curve at least 0.9, where 1 is the maximum; inconclusive = response in the unintended direction; inactive = score below 0.9.
Respond with a class label; see class 1 for active, class 0 for inactive

Take a look at these entries with their results.
Cc1c(N)nc(C(CC(N)=O)NCC(N)C(N)=O)nc1C(=O)NC(C(=O)NC(C)C(O)C(C)C(=O)NC(C(=O)NCCc1nc(-c2nc(C(=O)NCCCN[C@@H](C)c3ccccc3)cs2)cs1)C(C)O)C(O[C@@H]1O[C@@H](CO)[C@@H](O)[C@H](O)[C@@H]1O[C@H]1O[C@H](CO)[C@@H](O)[C@H](OC(N)=O)[C@@H]1O)c1cnc[nH]1 (some centres undefined) | class 1
CC(C)=CCOC(=O)c1ccccc1 | class 0

[ask] Record request — test call for "COC(=O)C1=C(C)NC(C)=C(C(=O)OC)C1c1ccccc1[N+](=O)[O-]"
[reply] class 0

[ask] Hi, do you know how "CNC(=O)c1ccccc1Sc1ccc2c(/C=C/c3ccccn3)n[nH]c2c1" came out in this test?
[reply] class 1

[ask] Field: outcome | Entry: "O=C1c2ccccc2C(=O)C1c1ccc(Br)cc1"
[reply] class 0

[ask] Per the assay record, what outcome was assigned to "CCCCN1CCCC[C@H]1C(=O)Nc1c(C)cccc1C" ?
[reply] class 0

[ask] Any idea what this test logged for "O=C=Nc1ccc(Cc2ccc(N=C=O)cc2)cc1" ?
[reply] class 0

[ask] Name the outcome recorded for "C=C(C)c1ccccc1" in the assay.
[reply] class 0
